- ASSAY TARGET: human enzyme NAMPT (full length) (Homo sapiens)
- Construct: human enzyme NAMPT (full length)
- ASSAY SUMMARY: NMN fluorescence biochemical assay (stimulation of NMN synthesis by NAMPT)
- TEST CONTEXT: NMN fluorescence assay, purified human NAMPT 100 nM; concentration giving half-maximal activation; read-out: Enzymatic EC50
Each entry below lists one item and its recorded EC50 value.

Below, 4 molecules whose answers are already recorded.
INSERT INTO measurements (molecule, assay_readout, result) VALUES
  ('Cc1n[nH]cc1C#CCN1C(=O)c2ccccc2C1Cc1c(Cl)cnn1C (centres unmarked)', 'EC50', '0.5 to 5 µM'),
  ('Cn1ncc(Cl)c1CC1c2ccccc2C(=O)N1Cc1ccc2nonc2c1 (centres unmarked)', 'EC50', '≥ 5 µM'),
  ('Cn1ncc(Cl)c1CC1c2ccccc2C(=O)N1CC1CC1C(N)=O (centres unmarked)', 'EC50', '≥ 5 µM'),
  ('Cn1nc(C(F)(F)F)c(Cl)c1CC1c2ccccc2C(=O)N1Cc1ccc2[nH]nnc2c1 (centres unmarked)', 'EC50', '< 0.5 µM');

Field: next molecule
What does the data say about its EC50? Entry: Cn1ncc(Cl)c1CC1c2cc(Cl)cc(F)c2C2(CC2)N1CC1CC2(CNC(=O)O2)C1 (centres unmarked) 0.5 to 5 µM

----------
- ASSAY TARGET: human enzyme NAMPT (full length) (Homo sapiens)
- Construct: human enzyme NAMPT (full length)
- ASSAY SUMMARY: NMN fluorescence biochemical assay (stimulation of NMN synthesis by NAMPT)
- TEST CONTEXT: NMN synthesis by purified human NAMPT (100 nM); concentration giving half-maximal activation; read-out: Enzymatic EC50
Each entry below lists one item and its recorded EC50 value.

Below, 5 molecules whose answers are already recorded.
INSERT INTO measurements (molecule, result) VALUES
  ('COc1ccc(CC2c3ccccc3C(=O)N2Cc2ccc3[nH]c(=O)oc3c2)cc1 (centres unmarked)', '0.5 to 5 µM'),
  ('O=C1c2ccccc2C(Cc2cnccc2Cl)N1Cc1ccc2[nH]c(=O)oc2c1 (centres unmarked)', '< 0.5 µM'),
  ('N#CC1c2ccccc2C(=O)N1Cc1ccc(O)cc1 (centres unmarked)', '≥ 5 µM'),
  ('O=C1c2ccccc2C(c2ccccc2)N1Cc1ccc2[nH]c(=O)oc2c1 (centres unmarked)', '≥ 5 µM'),
  ('N#Cc1ccc(CC2c3ccccc3C(=O)N2Cc2ccc3[nH]c(=O)oc3c2)c(F)c1 (centres unmarked)', '< 0.5 µM');

What does the data say about its EC50? Entry: O=C1c2ccccc2C(Cc2ccc(Br)cn2)N1Cc1ccc2[nH]c(=O)oc2c1 (centres unmarked) 0.5 to 5 µM

What does the data say about its EC50? Entry: COC1CN(c2ccc3c(c2)C(C)N(Cc2ccc4[nH]c(=O)oc4c2)C3=O)C1 (centres unmarked) ≥ 5 µM

What does the data say about its EC50? Entry: O=C1c2ccccc2C(COc2cccc(Cl)n2)N1Cc1ccc2[nH]c(=O)oc2c1 (centres unmarked) 0.5 to 5 µM

What does the data say about its EC50? Entry: CC1c2cc(CN(C)C)ccc2C(=O)N1Cc1ccc2[nH]c(=O)oc2c1 (single isomer, unassigned) ≥ 5 µM

What does the data say about its EC50? Entry: Cn1ncc(Cl)c1CC1c2ccccc2C(=O)N1Cc1ccc2[nH]nnc2c1 (centres unmarked) < 0.5 µM

What does the data say about its EC50? Entry: O=C1c2ccccc2C(Cc2ncccc2Br)N1Cc1ccc(O)cn1 (centres unmarked) 0.5 to 5 µM

What does the data say about its EC50? Entry: O=C1c2ccccc2C(Cc2ccncc2)N1Cc1ccc2[nH]c(=O)oc2c1 (centres unmarked) ≥ 5 µM

----------
- ASSAY TARGET: human enzyme NAMPT (full length) (Homo sapiens)
- Construct: human enzyme NAMPT (full length)
- ASSAY SUMMARY: NMN fluorescence biochemical assay (stimulation of NMN synthesis by NAMPT)
- TEST CONTEXT: fold change of maximal activation compared to DMSO
ASSAY READOUT: Enzymatic Emax

INSERT INTO assay_data (compound, result) VALUES
  ('O=C1c2ccccc2CCN1Cc1ccc2[nH]c(=O)oc2c1', 'B (3≥B>2)'),
  ('Cn1ncc(Cl)c1CC1c2cc(C3CCOCC3)ccc2C(=O)N1Cc1ccc2[nH]nnc2c1 (stereo not shown)', 'A (A>3)'),
  ('Cn1ncc(Cl)c1CC1c2ccccc2C(=O)N1Cc1c[nH]c(=S)s1 (stereo not shown)', 'A (A>3)'),
  ('O=C1c2ccccc2C(Cc2cc(F)ccn2)N1Cc1ccc2[nH]c(=O)oc2c1 (stereo not shown)', 'B (3≥B>2)'),
  ('COc1ccc(CN2C(=O)c3ncsc3C2Cc2c(Cl)cnn2C)cc1 (stereo not shown)', 'B (3≥B>2)');

Identify the measured Enzymatic Emax of CC1c2cc(C3CCCC3)ccc2C(=O)N1Cc1ccc2[nH]c(=O)oc2c1 (single isomer, unassigned) for human enzyme NAMPT (full length) (Homo sapiens). C (2≥C)

Identify the measured Enzymatic Emax of `O=C1c2ccc(N3CCCC3)cc2CN1Cc1ccc2[nH]c(=O)oc2c1` for human enzyme NAMPT (full length) (Homo sapiens). C (2≥C)

Identify the measured Enzymatic Emax of Cc1ncccc1CC1c2ccccc2C(=O)N1Cc1ccc2[nH]c(=O)oc2c1 (stereo not shown) for human enzyme NAMPT (full length) (Homo sapiens). B (3≥B>2)

Identify the measured Enzymatic Emax of CC(=O)c1ccc(CN2C(=O)c3ccccc3C2Cc2c(Cl)cnn2C)cc1 (stereo not shown) for human enzyme NAMPT (full length) (Homo sapiens). B (3≥B>2)

Identify the measured Enzymatic Emax of `CC(C)c1ccc2c(c1)C(=O)N(Cc1ccc(O)cc1)C2=O` for human enzyme NAMPT (full length) (Homo sapiens). A (A>3)

----------
- ASSAY TARGET: human enzyme NAMPT (full length) (Homo sapiens, UniProt P43490)
- Construct: human enzyme NAMPT (full length)
- Sequence (P43490 whole entry): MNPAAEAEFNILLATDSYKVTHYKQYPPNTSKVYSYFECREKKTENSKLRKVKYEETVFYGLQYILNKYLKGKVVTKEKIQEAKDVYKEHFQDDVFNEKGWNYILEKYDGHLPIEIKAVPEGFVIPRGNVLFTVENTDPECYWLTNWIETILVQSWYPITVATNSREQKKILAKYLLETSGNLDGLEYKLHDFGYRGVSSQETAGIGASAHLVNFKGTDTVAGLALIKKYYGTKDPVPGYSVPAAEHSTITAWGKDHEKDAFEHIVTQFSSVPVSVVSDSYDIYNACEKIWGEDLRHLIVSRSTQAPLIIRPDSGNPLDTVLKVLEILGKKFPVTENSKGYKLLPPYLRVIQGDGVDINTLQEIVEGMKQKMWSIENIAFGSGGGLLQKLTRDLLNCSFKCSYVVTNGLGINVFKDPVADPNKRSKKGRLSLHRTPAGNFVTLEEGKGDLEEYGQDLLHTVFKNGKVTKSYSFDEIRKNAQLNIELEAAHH
- ASSAY SUMMARY: NMN fluorescence biochemical assay (stimulation of NMN synthesis by NAMPT)
- TEST CONTEXT: fold change of maximal activation compared to DMSO
ASSAY READOUT: Enzymatic Emax

Below, 5 compounds whose answers are already recorded.
INSERT INTO assay_data (compound, result) VALUES
  ('O=C1c2ccccc2C(Cc2ncccc2Br)N1C/C=C/c1n[nH]c(=O)o1 (stereo not shown)', 'B (3≥B>2)'),
  ('COCc1ccc2c(c1)C(Cc1c(Cl)cnn1C)N(Cc1ccc3[nH]nnc3c1)C2=O (stereo not shown)', 'A (A>3)'),
  ('Cc1ccnc(C#N)c1CC1c2cccc(F)c2C(=O)N1Cc1ccc2[nH]nnc2c1 (stereo not shown)', 'A (A>3)'),
  ('Cn1ncc(Cl)c1CC1c2ccccc2C2(CC2)N1CC1CC2(CNC(=O)O2)C1 (stereo not shown)', 'B (3≥B>2)'),
  ('N#Cc1cncc(C#N)c1CC1c2ccccc2C(=O)N1CC1CC2(CNC(=O)O2)C1 (stereo not shown)', 'A (A>3)');

What does the data say about its Enzymatic Emax? Entry: Cn1cccc(CC2c3ccccc3C(=O)N2Cc2ccc3[nH]c(=O)oc3c2)c1=O (stereo not shown) A (A>3)

What does the data say about its Enzymatic Emax? Entry: N#CCc1ccccc1CC1c2ccccc2C(=O)N1Cc1ccc2[nH]c(=O)oc2c1 (stereo not shown) B (3≥B>2)

What does the data say about its Enzymatic Emax? Entry: CC1c2ccccc2C(=O)N1Cc1ccc(O)cc1 (stereo not shown) A (A>3)

What does the data say about its Enzymatic Emax? Entry: O=C1c2ccccc2C(Cc2cc(Cl)ccn2)N1Cc1ccc2[nH]c(=O)oc2c1 (stereo not shown) B (3≥B>2)

What does the data say about its Enzymatic Emax? Entry: Cc1noc2cc(CN3C(=O)c4ccccc4C3Cc3c(Cl)cnn3C)ccc12 (stereo not shown) B (3≥B>2)

----------
- Test system: endogenous NAMPT in U2OS cells
- ASSAY SUMMARY: Cellular NAD+ modulation assay (NAD/NADH-Glo, U2OS cells)
- Type: cell-based
- TEST CONTEXT: Homo sapiens, 24 hours incubation, cellular NAD+
pEC50: −log10 of the molar value.
ASSAY READOUT: pEC50

Below, 4 compounds whose answers are already recorded.
INSERT INTO assay_data (compound, assay_target, result) VALUES
  ('Cn1ncc(Cl)c1CC1c2ccccc2C(C)(C)N1CC1CC(C(N)=O)C1 (stereo not shown) [Compound 607]', 'endogenous NAMPT in U2OS cells', '4.30 to 5.30'),
  ('Cn1ncc(Cl)c1CC1c2cc(F)ccc2C(=S)N1CC1CC2(CNC(=O)O2)C1 (stereo not shown) [Compound 521]', 'endogenous NAMPT in U2OS cells', '5.30 to 6.30'),
  ('Cn1ncc(Cl)c1CC1c2cc(C(C)(C)O)ccc2C(=O)N1Cc1ccc2[nH]nnc2c1 (stereo not shown) [Compound 382]', 'endogenous NAMPT in U2OS cells', '5.30 to 6.30'),
  ('O=C1NC(=O)C2(CC(CN3C(=O)c4ccccc4C3Cc3ncccc3Br)C2)O1 (stereo not shown) [Compound 476]', 'endogenous NAMPT in U2OS cells', '4.30 to 5.30');

What does the data say about its pEC50? Entry: Cc1cccc2c1C(=O)N(CC1CC3(CNC(=O)O3)C1)C2Cc1c(Cl)cnn1C (stereo not shown) [Compound 460] > 6.30

What does the data say about its pEC50? Entry: CC(C)(O)Cn1cc(Cl)c(CC2c3ccccc3C(=O)N2Cc2ccc3[nH]nnc3c2)n1 (stereo not shown) [Compound 411] > 6.30

What does the data say about its pEC50? Entry: O=C1c2ccccc2C(Cc2n[nH]cc2Cl)N1Cc1ccc2[nH]nnc2c1 (stereo not shown) [Compound 388] 5.30 to 6.30

What does the data say about its pEC50? Entry: O=C1c2ccccc2C(Cc2ncccc2Br)N1CCCc1c[nH]nn1 (stereo not shown) [Compound 347] 5.30 to 6.30

What does the data say about its pEC50? Entry: COc1ccc(CN2C(=O)c3ccccc3C2Cc2c(Cl)cnn2C)cc1 (stereo not shown) [Compound 518] > 6.30

What does the data say about its pEC50? Entry: COc1ccc(CN2C(=O)c3ccccc3C2Cc2c(C)ncnc2C#N)cn1 (stereo not shown) [Compound 595] 5.30 to 6.30
